- Test system: SUM149PT spheroids with HUVEC/MSC, viability
- assay_notes: Anticancer human tumor SUM149PT cell line growth inhibition [GQUAD];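 also: spheroids exposed to drugs for seven days before readout; percent viability relative to DMSO vehicle control taken as 100%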
- condition_description: second compound 0.1 µM; first compound 1 µM; hits give low values
Some compounds, each annotated with its measured viability, T/C.

O=C(NO)c1cnc(N2CCN(S(=O)(=O)c3ccc4ccccc4c3)CC2)nc1 + Cc1[nH]c2ccc(F)cc2c1-c1nc2c3cccnc3c3ncccc3c2[nH]1; 9.4%
COc1ccc([C@@H](O)c2cc(-c3ncnc4cc(N5CCOCC5)ccc34)c(F)cc2Cl)nn1 + Cc1cnc(CNC(=O)c2c(=O)c3ccc(N4CCCN(C)CC4)nc3n3c2sc2ccccc23)cn1; 25.5%
CC1COCCN1c1cc(C2(S(C)(=N)=O)CC2)nc(-c2ccnc3[nH]ccc23)n1 (centres undefined) + CN(C)c1ccc(Nc2c3ccc(NC(=O)CCN4CCCC4)cc3nc3cc(NC(=O)CCN4CCCC4)ccc23)cc1; 89.4%

Next compound, please.
Qu. Lab request: please report viability, T/C under test system SUM149PT spheroids with HUVEC/MSC, viability for CC1COCCN1c1cc(C2(O)CC3CCC(C2)O3)c2cnn(-c3ccn[nH]3)c2n1 (centres undefined) + CN(C)c1ccc(Nc2c3ccc(NC(=O)CCN4CCCC4)cc3nc3cc(NC(=O)CCN4CCCC4)ccc23)cc1
Ans. 25.1%

Measured values drawn from PubChem BioAssay AID2060484 for this set.
